protocol: Selectivity index, ratio of CC50 for human MT4 cells to IC50 for HIV1 3B
Assay type: functional
measured_metric: Ratio CC50/IC50

Some molecules with recorded Ratio CC50/IC50:
- structure_string: "COc1ccc(CSc2nc(Cc3cccc4ccccc34)c(C(C)C)c(=O)[nH]2)cc1"
  Ratio CC50/IC50: 178
- structure_string: "COc1ccc(CSc2nc(Cc3ccc(-c4ccccc4)cc3)c(C)c(=O)[nH]2)cc1"
  Ratio CC50/IC50: "<1"
- structure_string: "CCc1c(Cc2ccccc2Br)nc(SCc2ccc([N+](=O)[O-])cc2)[nH]c1=O"
  Ratio CC50/IC50: ">368"
- structure_string: "CCc1c(Cc2cccc(Br)c2)nc(SCc2ccc([N+](=O)[O-])cc2)[nH]c1=O"
  Ratio CC50/IC50: 139.6
- structure_string: "Cc1cc(C)cc(Cc2nc(SCc3ccc([N+](=O)[O-])cc3)[nH]c(=O)c2C)c1"
  Ratio CC50/IC50: ">58"
- structure_string: "CCc1c(Cc2ccc(-c3ccccc3)cc2)nc(SCc2ccc(OC)cc2)[nH]c1=O"
  Ratio CC50/IC50: "<1"

Enquiry: Please give measured Ratio CC50/IC50 of the following entry: Cc1c(Cc2cccc(Br)c2)nc(SCc2ccc([N+](=O)[O-])cc2)[nH]c1=O
Return: >20

Enquiry: Please give measured Ratio CC50/IC50 of the following entry: COc1ccc(CSc2nc(Cc3ccccc3Br)c(C)c(=O)[nH]2)cc1
Return: 172

Enquiry: Please give measured Ratio CC50/IC50 of the following entry: COc1ccc(CSc2nc(Cc3cccc(Br)c3)c(C)c(=O)[nH]2)cc1
Return: >45

Enquiry: Please give measured Ratio CC50/IC50 of the following entry: CCc1c(Cc2cc(C(F)(F)F)cc(C(F)(F)F)c2)nc(SCc2ccc(OC)cc2)[nH]c1=O
Return: <=26

Enquiry: Please give measured Ratio CC50/IC50 of the following entry: CCc1c(Cc2cccc(Br)c2)nc(SCc2ccc(OC)cc2)[nH]c1=O
Return: 718

Enquiry: Please give measured Ratio CC50/IC50 of the following entry: Cc1c(Sc2ccccc2)n(COCCO)c(=O)[nH]c1=O
Return: 79

Enquiry: Please give measured Ratio CC50/IC50 of the following entry: CCc1c(Cc2ccccc2Br)nc(SCc2ccc(OC)cc2)[nH]c1=O
Return: 717

Enquiry: Please give measured Ratio CC50/IC50 of the following entry: CCc1c(Cc2cccc3ccccc23)nc(SCc2ccc(OC)cc2)[nH]c1=O
Return: 198

Enquiry: Please give measured Ratio CC50/IC50 of the following entry: CCc1c(Cc2cc(C)cc(C)c2)nc(SCc2ccc([N+](=O)[O-])cc2)[nH]c1=O
Return: >1906

Enquiry: Please give measured Ratio CC50/IC50 of the following entry: O=c1[nH]cnc2c1ncn2[C@H]1CC[C@@H](CO)O1
Return: >=98

Enquiry: Please give measured Ratio CC50/IC50 of the following entry: CCc1c(Cc2c(Cl)cccc2Cl)nc(SCc2ccc([N+](=O)[O-])cc2)[nH]c1=O
Return: >772

Enquiry: Please give measured Ratio CC50/IC50 of the following entry: CCc1c(Cc2cc(C)cc(C)c2)nc(SCc2ccccc2)[nH]c1=O
Return: >361

Enquiry: Please give measured Ratio CC50/IC50 of the following entry: CCc1c(Cc2c(Cl)cccc2Cl)nc(SCc2ccc(OC)cc2)[nH]c1=O
Return: >1793

Enquiry: Please give measured Ratio CC50/IC50 of the following entry: COc1ccc(CSc2nc(Cc3cc(C)cc(C)c3)c(C)c(=O)[nH]2)cc1
Return: >299

Enquiry: Please give measured Ratio CC50/IC50 of the following entry: CCc1c(Cc2cc(C)cc(C)c2)nc(SCc2ccc(OC)cc2)[nH]c1=O
Return: >2642

Enquiry: Please give measured Ratio CC50/IC50 of the following entry: Cc1c(Cc2ccccc2Br)nc(SCc2ccc([N+](=O)[O-])cc2)[nH]c1=O
Return: >=168
